Cited source for all entries: patent US4175081A

Give measured pest or weed control at 8966.8 g/ha for each item. Keep answers brief.
# Tested on: Bean (BN)
# METHOD NOTES: Pre-emergence herbicide test
# Assay type: in vivo, Phaseolus vulgaris var. Black Valentine
# CONDITION DETAILS: Phaseolus vulgaris, 336 h, 8 lb/acre, two weeks after treatment
One number for each entry, in %.

Below, 5 compounds whose answers are already recorded.
CSc1nnc(N(C)C(=O)N(C)C)s1 :: 90
Cc1nnc(NC(=O)N(C)C)s1 :: 80
C=CCNC(=O)Nc1nnc(SC)s1 :: 80
CC(C)NC(=O)Nc1nnc(C(F)(F)F)s1 :: 30
CNC(=O)Nc1nnc(C(C)(C)C)s1 :: 100

Batch of 4 compounds: report pest or weed control at 8966.8 g/ha for each.
1. CNC(=O)Nc1nnc(-c2ccccc2)s1
2. CCNC(=O)Nc1nnc(SC)s1
3. CNC(=O)Nc1nnc(C(F)(F)F)s1
4. CNC(=O)Nc1nnc(-c2ccc(Cl)cc2Cl)s1

[80, 80, 90, 100]
